The origin of these recorded values is the supplement of paper PMC9112550.

- System: Escherichia coli TOP10
- TEST PROTOCOL: shrunken log2 fold change of peptide-encoding DNA abundance (4.5 h post-induction vs induction); higher = less antimicrobial activity (less host growth inhibition)
- CONDITIONS USED: time post-induction: 4.5 h; library: site-saturation at positions 5, 18, 19, 20
// label = Criterion met if shrunken log2 fold change is not less than -0.2, otherwise Criterion not met

(Q) Is shrunken log2 fold change for `RRIRMRPPRLPRPRPRPVYFPRP` at or above -0.2?
(A) Criterion met

(Q) hey, is shrunken log2 fold change for this one >= -0.2? `RRIRARPPRLPRPRPRPFHSPRP`
(A) Criterion not met

(Q) Check if shrunken log2 fold change >= -0.2 (inclusive). Item: `RRIRQRPPRLPRPRPRPCWRPRP`
(A) Criterion met

(Q) Is reported shrunken log2 fold change greater than or equal to -0.2 here: `RRIRCRPPRLPRPRPRPIYTPRP`
(A) Criterion not met

(Q) Threshold query (shrunken log2 fold change >= -0.2) on `RRIRNRPPRLPRPRPRPNTTPRP`
(A) Criterion not met

----------
Assign shrunken log2 fold change to each entry below.
- Tested on: Escherichia coli TOP10
- TEST PROTOCOL: shrunken log2 fold change of peptide-encoding DNA abundance (4.5 h post-induction vs induction); higher = less antimicrobial activity (less host growth inhibition)
- CONDITIONS USED: time post-induction: 4.5 h; library: site-saturation at positions 5, 18, 19, 20
The answer should be written as a number, with no unit following it.

// recorded shrunken log2 fold change for `RRIRCRPPRLPRPRPRPVWLPRP` : 0.0721

// `RRIRDRPPRLPRPRPRPDNFPRP` : shrunken log2 fold change value = 0.0301

Reported shrunken log2 fold change for `RRIRIRPPRLPRPRPRPQFTPRP` was -0.986

The reported shrunken log2 fold change of the sequence `RRIRHRPPRLPRPRPRPEIVPRP` was -0.0182

Recorded shrunken log2 fold change (sequence `RRIRGRPPRLPRPRPRPREVPRP` ): 1.05

The sequence identified as `RRIRLRPPRLPRPRPRPAMAPRP` registered its shrunken log2 fold change at 0.00127

Kindly note the recorded shrunken log2 fold change for `RRIRTRPPRLPRPRPRPNTGPRP` , which is -0.388

shrunken log2 fold change reading for `RRIRRRPPRLPRPRPRPAQCPRP` : 0.152

// shrunken log2 fold change lookup, sequence = `RRIRMRPPRLPRPRPRPCRGPRP` , result: 0.0309

// field: shrunken log2 fold change; key: `RRIRRRPPRLPRPRPRPAVSPRP` ; value = -0.136

The measured shrunken log2 fold change associated with `RRIRRRPPRLPRPRPRPYPEPRP` reads 0.00427

----------
- System: Escherichia coli TOP10
- TEST PROTOCOL: shrunken log2 fold change of peptide-encoding DNA abundance (4.5 h post-induction vs induction); higher = less antimicrobial activity (less host growth inhibition)
- CONDITIONS USED: time post-induction: 4.5 h; library: site-saturation at positions 5, 18, 19, 20
Criterion: shrunken log2 fold change meeting or surpassing 0.08. Met: Criterion met. Not met: Criterion not met.

(Q) Dear colleague, could you confirm whether `RRIRIRPPRLPRPRPRPNDDPRP` has shrunken log2 fold change at or above 0.08?
(A) Criterion not met

(Q) Confirm if shrunken log2 fold change reported for the sequence `RRIRMRPPRLPRPRPRPSWFPRP` is 0.08 or above.
(A) Criterion not met

(Q) Record `RRIRGRPPRLPRPRPRPYYMPRP` ; criterion: shrunken log2 fold change no lower than 0.08. Met?
(A) Criterion not met

(Q) Dear colleague, could you confirm whether `RRIRARPPRLPRPRPRPKGLPRP` has shrunken log2 fold change at or above 0.08?
(A) Criterion met

(Q) Does `RRIRLRPPRLPRPRPRPSQFPRP` have a reported shrunken log2 fold change of at least 0.08?
(A) Criterion not met

(Q) Confirm if shrunken log2 fold change reported for the sequence `RRIRPRPPRLPRPRPRPEEGPRP` is 0.08 or above.
(A) Criterion not met

(Q) Decide: shrunken log2 fold change of `RRIRRRPPRLPRPRPRPQTIPRP` >= 0.08?
(A) Criterion met

(Q) Please indicate if the recorded shrunken log2 fold change for `RRIRHRPPRLPRPRPRPVSWPRP` meets or exceeds 0.08.
(A) Criterion met

(Q) Does shrunken log2 fold change meet or surpass 0.08 for `RRIRVRPPRLPRPRPRPGSFPRP` ?
(A) Criterion not met

(Q) Evaluate `RRIRRRPPRLPRPRPRPKKFPRP` : shrunken log2 fold change at minimum 0.08?
(A) Criterion not met

(Q) Is reported shrunken log2 fold change greater than or equal to 0.08 here: `RRIRDRPPRLPRPRPRPFQWPRP`
(A) Criterion not met

(Q) Check the entry `RRIRERPPRLPRPRPRPASYPRP` : does shrunken log2 fold change equal or exceed 0.08?
(A) Criterion not met

(Q) State whether the measured shrunken log2 fold change reaches 0.08, counting equality as reaching it, for `RRIRQRPPRLPRPRPRPKHHPRP`
(A) Criterion not met

(Q) Entry `RRIRFRPPRLPRPRPRPPMKPRP` : is its shrunken log2 fold change no less than 0.08?
(A) Criterion not met

(Q) Check this sequence for shrunken log2 fold change at or above 0.08: `RRIRDRPPRLPRPRPRPEGGPRP`
(A) Criterion met

(Q) Confirm if shrunken log2 fold change reported for the sequence `RRIRLRPPRLPRPRPRPISSPRP` is 0.08 or above.
(A) Criterion met

(Q) Check if shrunken log2 fold change >= 0.08 (inclusive). Item: `RRIRARPPRLPRPRPRPAEQPRP`
(A) Criterion met

(Q) Does the reported shrunken log2 fold change for `RRIRTRPPRLPRPRPRPWTYPRP` fall at or above the 0.08 mark?
(A) Criterion not met

(Q) Check the entry `RRIRMRPPRLPRPRPRPMEDPRP` : does shrunken log2 fold change equal or exceed 0.08?
(A) Criterion not met

(Q) Please indicate if the recorded shrunken log2 fold change for `RRIRHRPPRLPRPRPRPQRYPRP` meets or exceeds 0.08.
(A) Criterion not met

(Q) Dear colleague, could you confirm whether `RRIRERPPRLPRPRPRPNENPRP` has shrunken log2 fold change at or above 0.08?
(A) Criterion not met

(Q) Form field: shrunken log2 fold change at least 0.08? Entry: `RRIRERPPRLPRPRPRPLRMPRP`
(A) Criterion met

(Q) Has `RRIRMRPPRLPRPRPRPRLDPRP` a recorded shrunken log2 fold change greater than or equal to 0.08?
(A) Criterion met

(Q) Does the sequence `RRIRWRPPRLPRPRPRPCDNPRP` have recorded shrunken log2 fold change that is 0.08 or more?
(A) Criterion met

----------
- System: Escherichia coli TOP10;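 also: peptides expressed intracellularly from a pBAD plasmid library in pooled LB shake-flask culture, induced with 0.3% L-arabinose, DNA abundance read by NGS, three biological replicates, DESeq2 with apeglm shrinkage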
- TEST PROTOCOL: shrunken log2 fold change of peptide-encoding DNA abundance (4.5 h post-induction vs induction); higher = less antimicrobial activity (less host growth inhibition)
- CONDITIONS USED: time post-induction: 4.5 h; library: site-saturation at positions 5, 18, 19, 20
Measured shrunken log2 fold change determines class: zone 1 (below -0.002), zone 2 (-0.002 to below 0.09), zone 3 (0.09 or more)

(Q) Input `RRIRERPPRLPRPRPRPLWCPRP` ; output its category
(A) zone 1

(Q) // return the class label for `RRIRVRPPRLPRPRPRPTKDPRP`
(A) zone 1

(Q) Classify this sequence: `RRIRKRPPRLPRPRPRPRIFPRP`
(A) zone 1

(Q) Would you mind sorting `RRIRGRPPRLPRPRPRPQQDPRP` into the appropriate category?
(A) zone 3

(Q) Category of `RRIRDRPPRLPRPRPRPNGIPRP` , please.
(A) zone 2

(Q) Kindly state the category for this sequence: `RRIRWRPPRLPRPRPRPSRMPRP`
(A) zone 2

(Q) Classify this sequence: `RRIRVRPPRLPRPRPRPWGRPRP`
(A) zone 2

(Q) In plain terms, what class is `RRIRCRPPRLPRPRPRPYTTPRP` ?
(A) zone 1

(Q) Exercise: read the entry `RRIRDRPPRLPRPRPRPPSSPRP` and state which class it falls under.
(A) zone 1

(Q) Band for the recorded shrunken log2 fold change of `RRIRMRPPRLPRPRPRPWQPPRP` ?
(A) zone 1

(Q) For the record `RRIRHRPPRLPRPRPRPALIPRP` , report the class its shrunken log2 fold change corresponds to.
(A) zone 2

(Q) Please indicate the class for `RRIRGRPPRLPRPRPRPHFCPRP` based on its shrunken log2 fold change.
(A) zone 3

(Q) Where would `RRIRKRPPRLPRPRPRPMDVPRP` land among the classes by reported shrunken log2 fold change?
(A) zone 2

(Q) State the class of the sequence shown: `RRIRWRPPRLPRPRPRPWAHPRP`
(A) zone 3

(Q) Band assignment needed for `RRIRTRPPRLPRPRPRPRVGPRP` please.
(A) zone 3

(Q) Please report the category associated with `RRIRCRPPRLPRPRPRPEATPRP` , nothing else.
(A) zone 3

(Q) Lab log: `RRIRHRPPRLPRPRPRPEHFPRP` — assign shrunken log2 fold change category
(A) zone 2

(Q) Place this sequence in its band: `RRIRERPPRLPRPRPRPPMPPRP`
(A) zone 2

(Q) Tag the class for `RRIRKRPPRLPRPRPRPDASPRP`
(A) zone 3
